Reference source: PubChem BioAssay AID1434

Below, each of the compounds is paired with its reported inhibition value.
# SUBJECT OF TEST: Runt-related transcription factor 1 (Homo sapiens) + Core-binding factor subunit beta (Homo sapiens) (UniProt Q01196+Q13951)
# Sequence (Q01196 whole entry, looked up, the tested form may be a part): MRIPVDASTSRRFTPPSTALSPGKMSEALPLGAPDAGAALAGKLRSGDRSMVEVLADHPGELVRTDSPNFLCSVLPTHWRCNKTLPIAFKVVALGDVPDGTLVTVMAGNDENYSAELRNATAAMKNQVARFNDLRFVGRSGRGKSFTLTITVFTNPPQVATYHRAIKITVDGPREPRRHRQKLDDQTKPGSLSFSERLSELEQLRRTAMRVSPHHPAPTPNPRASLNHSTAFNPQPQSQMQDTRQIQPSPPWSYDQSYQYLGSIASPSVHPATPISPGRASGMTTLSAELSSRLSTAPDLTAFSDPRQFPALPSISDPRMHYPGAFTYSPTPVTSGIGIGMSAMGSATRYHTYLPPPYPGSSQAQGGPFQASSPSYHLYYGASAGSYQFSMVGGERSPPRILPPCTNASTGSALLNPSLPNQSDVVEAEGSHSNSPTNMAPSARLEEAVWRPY
# Sequence (Q13951 whole entry, looked up, the tested form may be a part): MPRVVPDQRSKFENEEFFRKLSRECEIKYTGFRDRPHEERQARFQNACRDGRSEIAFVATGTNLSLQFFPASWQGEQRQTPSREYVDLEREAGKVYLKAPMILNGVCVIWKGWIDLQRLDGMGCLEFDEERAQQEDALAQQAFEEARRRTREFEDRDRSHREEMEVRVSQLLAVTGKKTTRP
# ASSAY METHOD TEXT: disruptors of Runt domain/CBFb-SMMHC interaction – biochemical, FRET, Cerulean-Runt, Venus-CBFb-SMMHC, uHTS, primary screen (AID 1434);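 further: 0% = DMSO wells and 100% = wells with excess untagged CBFb-SMMHC; inhibitors lower the FRET ratio by blocking Runt binding to CBFb-SMMHC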
# REPORTED CONDITIONS: Cerulean-Runt/Venus-CBFb-SMMHC FRET ratio 530/480, 1 h; at 20 µM; hits give high values
The campaign covered roughly 220,000 compounds. About 1,600 (0.73%) were called active. What follows is part of a selection rich in actives, with near analogues and random picks from the rest.

SUBSTANCE SMILES	inhibition [%]
CCOC(=O)C1(CCc2ccccc2)CCN(Cc2ccco2)CC1	-5.4
CCOc1cccc(=NC2CCCCC2)c2c(C)[nH]c(C)c12	-11
CC1(C)C(c2ccccc2)=NC(c2cccnc2)=[N+]1[O-]	-6.5
COc1cc(OC)cc(C2(C#N)CCN(C)CC2)c1	-1.4
CCOC(=O)c1c(N)n(Cc2ccccc2)c2nc3ccccc3nc12	97.2
O=C(OCCN1CCOCC1)C1(c2ccccc2)CCCC1	-5.6
